Quick reference: EC50 of the listed items.
# Test system: RPMI-8226
# PROTOCOL DETAILS: CellTiterGlo cell viability assay, RPMI-8226
# Format: cell-based, Human
# SETTINGS: Homo sapiens, RPMI-8226, 72 h, Table 4 classes, read-out: Ab EC50

MOLECULE: Nc1nc(Cl)nc2c1ncn2[C@@H]1O[C@H](COP(=O)(O)OP(=O)(Oc2ccccc2)N2CCCC2C(=O)OCc2ccccc2)[C@H](O)C1F (stereo partly shown)
EXPERIMENTAL TARGET: RPMI-8226
EC50: > 10 µM

MOLECULE: C[C@H](NP(=O)(Oc1cccc2c1CCCC2)OP(=O)(O)OC[C@H]1O[C@@H](n2cnc3c(N)nc(Cl)nc32)[C@H](F)C1O)C(=O)OCc1ccccc1 (stereo partly shown)
EXPERIMENTAL TARGET: RPMI-8226
EC50: > 10 µM

MOLECULE: CC(C)C[C@H](NP(=O)(Oc1ccccc1)OP(=O)(O)OC[C@H]1O[C@@H](n2cnc3c(N)nc(Cl)nc32)[C@H](F)C1O)C(=O)OCc1ccccc1 (stereo partly shown)
EXPERIMENTAL TARGET: RPMI-8226
EC50: > 10 µM

MOLECULE: CC(C)(NP(=O)(Oc1ccccc1)OP(=O)(O)OC[C@H]1O[C@@H](n2cnc3c(N)nc(Cl)nc32)[C@H](F)C1O)C(=O)OCc1ccccc1 (stereo partly shown)
EXPERIMENTAL TARGET: RPMI-8226
EC50: > 10 µM

MOLECULE: Nc1nc(Cl)nc2c1ncn2[C@@H]1O[C@H](COP(=O)(O)OP(=O)(N[C@@H](Cc2ccccc2)C(=O)OCc2ccccc2)Oc2ccccc2)C(O)[C@H]1F (stereo partly shown)
EXPERIMENTAL TARGET: RPMI-8226
EC50: 1 to 5 µM

MOLECULE: Nc1nc(Cl)nc2c1ncn2[C@@H]1O[C@H](CO)[C@@H](O)[C@@H]1F [Clofarabine, reference compound]
EXPERIMENTAL TARGET: RPMI-8226
EC50: > 10 µM

MOLECULE: C[C@H](NP(=O)(Oc1cccc2ccccc12)OP(=O)(O)OC[C@H]1O[C@@H](n2cnc3c(N)nc(Cl)nc32)[C@H](F)C1O)C(=O)OCc1ccccc1 (stereo partly shown)
EXPERIMENTAL TARGET: RPMI-8226
EC50: > 10 µM

MOLECULE: CCCCCCOC(=O)[C@H](C)NP(=O)(Oc1ccccc1)OP(=O)(O)OC[C@H]1O[C@@H](n2cnc3c(N)nc(Cl)nc32)[C@H](F)C1O (stereo partly shown)
EXPERIMENTAL TARGET: RPMI-8226
EC50: > 10 µM

MOLECULE: CCOC(=O)[C@@H](NP(=O)(Oc1ccccc1)OP(=O)(O)OC[C@H]1O[C@@H](n2cnc3c(N)nc(Cl)nc32)C(F)[C@H]1O)C(C)CC (stereo partly shown)
EXPERIMENTAL TARGET: RPMI-8226
EC50: 1 to 5 µM

MOLECULE: CC(C)(NP(=O)(Oc1cccc2ccccc12)OP(=O)(O)OC[C@H]1O[C@@H](n2cnc3c(N)nc(Cl)nc32)[C@H](F)C1O)C(=O)OCc1ccccc1 (stereo partly shown)
EXPERIMENTAL TARGET: RPMI-8226
EC50: > 10 µM

Value source: patent US11560400B2
